Entries annotated with measured pIC50
- TESTED SYSTEM: KRAS G12V binding to BRAF (Homo sapiens (Human), UniProt P01116+P62937, G12V)
- Sequence (P01116-2 other isoform, or with tags, fused parts or gaps G12V, one chain of several): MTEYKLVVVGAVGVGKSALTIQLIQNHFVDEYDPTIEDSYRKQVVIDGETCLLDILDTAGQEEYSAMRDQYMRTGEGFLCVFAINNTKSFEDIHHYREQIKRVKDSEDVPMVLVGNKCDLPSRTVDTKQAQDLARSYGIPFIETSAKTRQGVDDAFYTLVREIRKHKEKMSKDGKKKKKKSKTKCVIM
- TEST DESCRIPTION: KRAS-BRAF with CYPA (500 nM) interaction assay (TR-FRET), G12V
The quantity pIC50 is defined as the negative base-10 logarithm of the molar concentration.

CO[C@@H](C)c1ncc(N2CCN(C)CC2)cc1-c1c2c3c(F)c(ccc3n1CC(F)(F)F)-c1cc(O)cc(c1)C[C@H](NC(=O)[C@H](C(C)C)N(C)C(=O)[C@H]1CCN(C(=O)[C@H](F)Cl)C1)C(=O)N1CCC[C@H](N1)C(=O)OCC(C)(C)C2 (atropisomer, axis not shown; (M)) [Example 27] | 8.52

Record request: pIC50 value, item CO[C@@H](C)c1ncc(N2CCN(C)CC2)cc1-c1c2c3c(F)c(ccc3n1CC(F)(F)F)-c1csc(n1)C[C@H](NC(=O)[C@H](C(C)C)N1CCCC3(CCN(C(=O)[C@H](F)Cl)CC3)C1=O)C(=O)N1CCC[C@H](N1)C(=O)OCC(C)(C)C2 (atropisomer, axis not shown; (M)) [Example 20]
5.75

----------
- System: phosphorylation of ERK, KRAS G12C in NCJ-H358 cells
- TEST DESCRIPTION: pERK inhibition assay, KRAS G12C
- Type: cell-based, human
- TEST CONDITIONS: Homo sapiens, 4 hours
READOUT NAME: pIC50
Remember the convention: pIC50 equals -log10 of concentration in molar.

Known results for compounds:
CCn1c(-c2cc(N3CCOCC3)cnc2[C@H](C)OC)c2c3cc(c(F)cc31)-c1csc(n1)C[C@H](NC(=O)[C@H](C(C)C)N1CCC3(CN(C(=O)[C@H](F)Cl)C3)C1=O)C(=O)N1CCC[C@H](N1)C(=O)OCC(C)(C)C2 (atropisomer, axis not shown; (M)) [Example 52] | 8.40
CCn1c(-c2cc(N3CCN(C)CC3)cnc2[C@H](C)OC)c2c3cc(c(F)cc31)-c1csc(n1)C[C@H](NC(=O)[C@H](C(C)C)N1CCCC3(CCN(C(=O)[C@H](F)Cl)CC3)C1=O)C(=O)N1CCC[C@H](N1)C(=O)OCC(C)(C)C2 (atropisomer, axis not shown; (M)) [Example 36] | 8.52
CCn1c(-c2cc(N3CCN(CC(F)(F)F)CC3)cnc2[C@H](C)OC)c2c3cc(c(F)cc31)-c1csc(n1)C[C@H](NC(=O)[C@H](C(C)C)N1CCC3(CCN(C(=O)[C@H](F)Cl)CC3)C1=O)C(=O)N1CCC[C@H](N1)C(=O)OCC(C)(C)C2 (atropisomer, axis not shown; (M)) [Example 39] | 8.22
CCn1c(-c2cc(N3CCOCC3)cnc2[C@H](C)OC)c2c3cc(c(F)cc31)-c1csc(n1)C[C@H](NC(=O)[C@H](C(C)C)N1CC[C@]3(CCN(C(=O)[C@H](F)Cl)C3)C1=O)C(=O)N1CCC[C@H](N1)C(=O)OCC(C)(C)C2 (atropisomer, axis not shown; (M)) [Example 51] | 8.70
CO[C@@H](C)c1ncc(N2CCOCC2)cc1-c1c2c3cc(c(F)cc3n1CC(F)(F)F)-c1csc(n1)C[C@H](NC(=O)[C@H](C(C)C)N1CCC3(CN(C(=O)[C@H](F)Cl)C3)C1=O)C(=O)N1CCC[C@H](N1)C(=O)OCC(C)(C)C2 (atropisomer, axis not shown; (M)) [Example 58] | 7.92

Could you share which pIC50 value was measured for CCn1c(-c2cc(N3CCN(CC(F)(F)F)CC3)cnc2[C@H](C)OC)c2c3cc(c(F)cc31)-c1csc(n1)C[C@H](NC(=O)[C@H](C(C)C)N(C)C(=O)[C@H]1CCN(C(=O)[C@H](F)Cl)C1)C(=O)N1CCC[C@H](N1)C(=O)OCC(C)(C)C2 (atropisomer, axis not shown; (M)) [Example 33] ?
8.40

Then this compound: CCn1c(-c2cc(N3CCN(CC(F)(F)F)CC3)cnc2[C@H](C)OC)c2c3cc(c(F)cc31)-c1csc(n1)C[C@H](NC(=O)[C@H](C(C)C)N(C)C(=O)C1(F)CCN(C(=O)[C@H](F)Cl)CC1)C(=O)N1CCC[C@H](N1)C(=O)OCC(C)(C)C2 (atropisomer, axis not shown; (M)) [Example 49]
8.52

----------
- System: NCI-H358 (ATCC-CRL5807) cells
- TEST DESCRIPTION: Cell viability assay, G12C (NCI-H358)
- Type: cell-based, human
- TEST CONDITIONS: Homo sapiens; KRAS cell viability, NCI-H358, 72 hrs, Cell Counting Kit-8
pIC50: −log10 of the molar value.
The following molecules are listed with their measured pIC50 values.

CO[C@@H](C)c1ncc(N2CCN(CC(F)(F)F)CC2)cc1-c1c2c3cc(c(F)cc3n1CC(F)(F)F)-c1csc(n1)C[C@H](NC(=O)[C@H](C(C)C)N(C)C(=O)C1(F)CCN(C(=O)[C@H](F)Cl)CC1)C(=O)N1CCC[C@H](N1)C(=O)OCC(C)(C)C2 (atropisomer, axis not shown; (M)) | > 9.00
CO[C@@H](C)c1ncc(N2CCN(C)CC2)cc1-c1c2c3cc(c(F)cc3n1CC(F)(F)F)-c1csc(n1)C[C@H](NC(=O)[C@H](C(C)C)N1CCC3(CCN(C(=O)[C@H](F)Cl)CC3)C1=O)C(=O)N1CCC[C@H](N1)C(=O)OCC(C)(C)C2 (atropisomer, axis not shown; (M)) | > 9.00

Please look up its pIC50: CCn1c(-c2cc(N3CCN(C)CC3)cnc2[C@H](C)OC)c2c3cc(c(F)cc31)-c1csc(n1)C[C@H](NC(=O)[C@H](C(C)C)N1CC[C@]3(CCN(C(=O)[C@H](F)Cl)C3)C1=O)C(=O)N1CCC[C@H](N1)C(=O)OCC(C)(C)C2 (atropisomer, axis not shown; (M))
> 9.00

----------
- TESTED SYSTEM: KRAS G12V binding to BRAF (Homo sapiens (Human), UniProt P01116+P62937, G12V)
- TEST DESCRIPTION: KRAS-BRAF with CYPA (500 nM) interaction assay (TR-FRET), G12V
Criterion: IC50 strictly less than 1000 nM. Met: T. Not met: F.

CCn1c(-c2cc(N3CCN(CC(F)(F)F)CC3)cnc2[C@H](C)OC)c2c3cc(c(F)cc31)-c1csc(n1)C[C@H](NC(=O)[C@H](C(C)C)N1CC[C@]3(CCN(C(=O)[C@H](F)Cl)C3)C1=O)C(=O)N1CCC[C@H](N1)C(=O)OCC(C)(C)C2 | T
CCn1c(-c2cc(N3CCOCC3)cnc2[C@H](C)OC)c2c3cc(c(F)cc31)-c1csc(n1)C[C@H](NC(=O)[C@H](C(C)C)N(C)C(=O)C1(F)CCN(C(=O)[C@H](F)Cl)CC1)C(=O)N1CCC[C@H](N1)C(=O)OCC(C)(C)C2 (atropisomer, axis not shown; (M)) | T
CCn1c(-c2cccnc2COC)c2c3cc(ccc31)-c1cc(O)cc(c1)C[C@H](NC(=O)[C@H](C(C)C)N(C)C(=O)C1CN(C(=O)[C@H](F)Cl)C1)C(=O)N1CCC[C@H](N1)C(=O)OCC(C)(C)C2 [RM461-A, reference compound] | F
CCn1c(-c2cc(N3CCN(C)CC3)cnc2[C@H](C)OC)c2c3cc(c(F)cc31)-c1csc(n1)C[C@H](NC(=O)[C@H](C(C)C)N(C)C(=O)C1(F)CCN(C(=O)[C@H](F)Cl)CC1)C(=O)N1CCC[C@H](N1)C(=O)OCC(C)(C)C2 (atropisomer, axis not shown; (M)) | T
CO[C@@H](C)c1ncc(N2CCOCC2)cc1-c1c2c3cc(c(F)cc3n1CC(F)(F)F)-c1csc(n1)C[C@H](NC(=O)[C@H](C(C)C)N(C)C(=O)[C@H]1CCN(C(=O)[C@H](F)Cl)C1)C(=O)N1CCC[C@H](N1)C(=O)OCC(C)(C)C2 (atropisomer, axis not shown; (M)) | F

I wonder whether CCn1c(-c2cc(N3CCN(C)CC3)cnc2[C@H](C)OC)c2c3cc(c(F)cc31)-c1csc(n1)C[C@H](NC(=O)[C@H](C(C)C)N1CCC[C@]3(CCN(C(=O)[C@@H](F)Cl)C3)C1=O)C(=O)N1CCC[C@H](N1)C(=O)OCC(C)(C)C2 [Example 22] has IC50 below 1000 nM. Can you tell?
F

----------
- TESTED SYSTEM: KRAS G12D binding to BRAF (Homo sapiens (Human), UniProt P01116+P62937, G12D)
- Sequence (P01116-2 other isoform, or with tags, fused parts or gaps G12D): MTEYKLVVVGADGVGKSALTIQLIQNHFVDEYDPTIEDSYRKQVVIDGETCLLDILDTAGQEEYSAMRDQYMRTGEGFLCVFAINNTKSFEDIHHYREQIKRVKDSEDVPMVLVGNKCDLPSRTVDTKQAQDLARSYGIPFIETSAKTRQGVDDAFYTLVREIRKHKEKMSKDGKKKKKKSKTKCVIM
- Sequence (P62937 whole entry): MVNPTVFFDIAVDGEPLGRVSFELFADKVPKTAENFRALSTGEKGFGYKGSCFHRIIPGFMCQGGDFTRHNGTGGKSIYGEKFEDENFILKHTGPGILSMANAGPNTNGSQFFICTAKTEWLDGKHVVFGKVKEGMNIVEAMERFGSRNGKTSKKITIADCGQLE
- TEST DESCRIPTION: KRAS-BRAF with CYPA (500 nM) interaction assay (TR-FRET), G12D
READOUT NAME: pIC50
Give only the number. pIC50 is defined as minus log10 of concentration in molar units.

In the examples that follow, each entry is paired with its recorded pIC50.
CO[C@@H](C)c1ncc(N2CCN(C)CC2)cc1-c1c2c3cc(c(F)cc3n1CC(F)(F)F)-c1csc(n1)C[C@H](NC(=O)[C@H](C(C)C)N(C)C(=O)C1(F)CCN(C(=O)[C@H](F)Cl)CC1)C(=O)N1CCC[C@H](N1)C(=O)OCC(C)(C)C2 (atropisomer, axis not shown; (M)) [Example 10] | 6.02
CCn1c(-c2cc(N3CCN(CC(F)(F)F)CC3)cnc2[C@H](C)OC)c2c3cc(c(F)cc31)-c1csc(n1)C[C@H](NC(=O)[C@H](C(C)C)N1CCCC3(CCN(C(=O)[C@H](F)Cl)CC3)C1=O)C(=O)N1CCC[C@H](N1)C(=O)OCC(C)(C)C2 (atropisomer, axis not shown; (M)) [Example 48] | 5.99

Turning to the following compound.
Lookup: pIC50 / KRAS G12D binding to BRAF (Homo sapiens (Human), UniProt P01116+P62937, G12D) / CCn1c(-c2cc(N3CCN(CC(F)(F)F)CC3)cnc2[C@H](C)OC)c2c3cc(c(F)cc31)-c1csc(n1)C[C@H](NC(=O)[C@H](C(C)C)N1CC[C@]3(CCN(C(=O)[C@H](F)Cl)C3)C1=O)C(=O)N1CCC[C@H](N1)C(=O)OCC(C)(C)C2 [Example 38]
5.48
